Test: octanol-water partition coefficient (Log P value)
Type: physicochemical
Settings: octanol-water distribution coefficient
OBSERVATION TYPE: logP
Please reply with the number alone, leaving off any unit.

[[record]]
chem_smiles = "Cc1ccc(S(=O)(=O)Nc2ccccc2)cc1"
reported_measurement = 2.9


Attention now turns to another entry.
For this compound ( CCCCCCCCOc1ccc(C(=O)c2ccccc2)c(O)c1 ), measured logP is 5.6
